# pKd per entry
- tested target: SARS-CoV-2 spike protein receptor binding domain (RBD) (SARS-CoV-2, UniProt P0DTC2 319-541)
pKd: −log10 of the molar value.
property measured: pKd

{"columns": ["binder", "value observed"],
 "data": [
  ["IMPI-006 (antibody, V domains shown) VH: QLQLQESGPGLVKPSETLSLTCTVSGGSISNSNYYWGWIRQPPGKGLEWIGSIYYSGRTYYNPSLKSRVTISVDTSKNQFSLKLSSVTAADTAVYYCARMGLLWFGEFYGMDVWGQGTTVTVSS VL: DIQMTQSPSSLSASVGDRVTITCRASQGISSWLAWYQQKPEKAPKSLIYDASSLQRGVPSRFSGSGSGTDFTLTISSLQPEDFASYYCQQYNSYPLTFGGGTRVEIK", 6.72],
  ["IMPI-033 (antibody, V domains shown) VH: QVQLQESGPGLVKPSQTLSLTCTVSGGSISSYGYYWSWIRQHPGKGLEWIGYIYYSGSTYYNPSLKSRVTMSVDTSKNQLSLRLNSVSAADTAVYYCARDFGGNSNYFDYWGQGTLVTVSS VL: AIQLTQSPSSLSASVGDRVTITCRASQGISSALAWYQQKPGKAPNLLIYDASSLESGVPSRFSGSGSGTDFTLTISSLQPEDFATYYCQQFNSSPLTFGGGTKVEIK", 8.52]
]}
